Data origin, for the record: ChEMBL document CHEMBL1152236

biological target: Carbonic anhydrase 2 (Homo sapiens, UniProt P00918); experiment: Inhibition of human carbonic anhydrase 2 esterase activity by uncompetitive Lineweaver-Burke plot
Recorded Endpoint: Ki (mM)
Your answer should be a plain number; it is taken to be in mM.

For Cc1cccc(C(=O)O)c1O [HYDROXYTOLUIC ACID] the compound record lists Ki as 10.6

====

molecular target: Carbonic anhydrase 1 (Homo sapiens, UniProt P00915); assay: Inhibition of human carbonic anhydrase 1 esterase activity by uncompetitive Lineweaver-Burke plot
Sequence (P00915 whole entry): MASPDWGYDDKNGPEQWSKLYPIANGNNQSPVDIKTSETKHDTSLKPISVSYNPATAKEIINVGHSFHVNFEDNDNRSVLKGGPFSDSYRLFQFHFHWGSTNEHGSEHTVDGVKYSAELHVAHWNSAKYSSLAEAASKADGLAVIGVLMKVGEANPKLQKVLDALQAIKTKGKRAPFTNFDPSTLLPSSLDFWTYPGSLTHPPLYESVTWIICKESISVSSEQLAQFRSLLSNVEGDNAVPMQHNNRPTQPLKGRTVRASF
Measured pKi values are reported for all entries that follow.
API: returns pKi as number; meaning -log10 of concentration in mol/L.

Smiles Structure	Measured On	Recorded Endpoint	Experimental Result
O=C(O)c1ccc(S(=O)(=O)O)cc1O	Carbonic anhydrase 1 (Homo sapiens, UniProt P00915)	pKi	3.32

Moving on to another molecule below.
For `O=C(O)c1cc(Cl)ccc1O` the molecule record lists pKi as 5.38
